Test system: NCI-H460 lung
assay-name: NCI tumour cell line growth inhibition, 48 h
Some compounds, each annotated with its measured TGI.

// TGI lookup, compound = COc1ccc(S(=O)(=O)N/N=C\c2cc([N+](=O)[O-])cc(I)c2O)c(OC)c1OC , result: > 100 µM

compound COc1cc(OC)cc(-n2c(N)c(C#N)c3ccc([N+](=O)[O-])cc3c2=O)c1 , TGI observed: > 100 µM

Looking up O=C1C2C=CC(n3[nH]c(=O)n(Cc4ccccc4)c3=O)CC2C(=O)N1c1cccc(Cl)c1 (stereo not given) , I see its TGI listed as > 100 µM

The recorded TGI for entry CCOC(=O)C(=O)Nc1ccc(C)c(C)c1 equals > 100 µM

Lookup result for CN(C)CCCNC(=O)N/N=C/c1ccc([N+](=O)[O-])cc1 ; measured TGI: > 100 µM

The compound CC(=O)OC1CC2(C)C(OC(C)=O)CC1C2(C)C (stereo not given) showed TGI equal to > 100 µM

The compound listed as Cc1cc(C)c(S(=O)(=O)N2CCN(S(=O)(=O)c3c(C)cc(C)cc3C)OCCCCCO2)c(C)c1 shows TGI equal to > 100 µM

Reported TGI of COc1ccc(NC(=O)/C(Cc2nc3ccccc3[nH]c2=O)=N\O)c(OC)c1 : > 100 µM

Query COc1cc(C=O)cc(/C=N/c2ccccn2)c1O yields TGI of 42.7 µM

Recorded result, O=C(c1cc(Cl)ccc1Cl)N1CCN(c2cccc(Cl)c2)CC1 , TGI: 31.5 µM

---

System: SF-268 CNS
assay-name: NCI tumour cell line growth inhibition, 48 h
TGI overview

The cases that follow already have their TGI on record.
# compound, assayed-target, TGI
data = [
    ("CC(=O)[CH-]C(C)=O.CC(=O)[CH-]C(C)=O.CC(=O)[CH-]C(C)=O.[In+3]", "SF-268 CNS", "> 100 µM"),
    ("COc1ccc(NC(=O)/C(Cc2nc3ccccc3[nH]c2=O)=N\\O)c(OC)c1", "SF-268 CNS", "> 100 µM"),
    ("CC(CC[C@@H](C)C1CCC2[C@@H]3CC(O)C4CC(O)[C@@H](O)C[C@]4(C)C3CC[C@@]21C)C(C)(C)C (some centres undefined)", "SF-268 CNS", "> 100 µM"),
    ("Cc1cc(O)c(C(=O)O)c2c1C(=O)c1c(O)c(OCC(O)C(O)C(O)C(O)CO)c(O)c(O)c1C2=O (centres undefined) (tested in a mixture with another compound)", "SF-268 CNS", "> 100 µM"),
    ("CN1C2CCC1CN(CCOC(c1ccc(F)cc1)c1ccc(F)cc1)C2", "SF-268 CNS", "> 100 µM"),
]

As a next step, examine the compound that follows.
Summary line: CN1C(=O)CC2CCCN2C1=O (centres undefined) , SF-268 CNS, reported TGI = > 100 µM

---

Test system: SF-268 CNS
assay-name: NCI tumour cell line growth inhibition, 48 h
measurement-type: TGI

Measured TGI, CN(C)Cc1cc(N=Nc2ccccc2)ccc1O : > 100 µM

TGI measured on CC1CC2OC(=O)CC2C[C@@H]1O[Si](C)(C)C(C)(C)C (stereo partly drawn) = > 100 µM

TGI reading for N=C(N)N=Nc1ccc(NN=C(N)N)c2c1ncc1c2nc2sccn21 : 35.9 µM

Field TGI (entry Fc1cnc(NC2CC2)nc1-c1cnc2ccc(N3CCOCC3)cn12 ) reads 6.85 µM

Lab note: measured TGI of COc1nc(N)c(C#N)c(C#N)c1C#N was > 10 µM

---

Test system: NCI-H522 lung
assay-name: NCI tumour cell line growth inhibition, 48 h; in the data active means GI50 below about 0.43 µM; inactive means the rest
Response enum: active, inactive

Solved entries (count: 2):
# item-smiles, group-label
rows = [
    ("O=C(NCc1ccc(Cl)cc1Cl)c1ccc(NC2=C(Cl)C(=O)N(Cc3ccccc3)C2=O)cc1", "inactive"),
    ("COc1cc2ncn(-c3cc(O[C@H](C)c4ccccc4Cl)c(C(N)=O)s3)c2cc1OC", "active"),
]

Recorded test call requested for Nc1nc(/C=C\c2ccc([N+](=O)[O-])cc2)nc(N2CCN(c3ccccc3)CC2)n1 inactive

Fill in: this test's call for CCN1CCN(c2cc(C)nc(N(CCNc3ccnc4cc(Cl)ccc34)Cc3ccc4c(c3)OCO4)n2)CC1 is ___ inactive

Outcome logged for CC(=O)[CH-]C(C)=O.CC(=O)[CH-]C(C)=O.CC(=O)[CH-]C(C)=O.[In+3] in this assay: inactive

Which result was noted for this compound in the test: O=C1Nc2cc(Cl)ccc2/C1=C\c1c(-c2ccc(F)cc2)nc2ccccn12 active

Recorded test call requested for O=C(/C=C/c1ccc(Cl)cc1)/C=C/c1cc2ccccc2[nH]c1=O inactive

Hi, do you know how FC(F)(F)c1nnn[n-]1.[Au+].c1ccc([PH+](c2ccccc2)c2ccccc2)cc1 came out in this test? inactive

Recorded test outcome, item O=C(Nc1ccc(CN2CCOCC2)cc1)c1ccc(-c2cc(Cl)ccc2Cl)o1 inactive

---

Tested on: HOP-62 NSCLC
assay-name: NCI tumour cell line growth inhibition, 48 h
Measured TGI, listed per entry for reference.

Sure, the documented TGI for COc1ccc2[nH]c(-c3ccccc3)c(/C=C(\C#N)S(=O)(=O)c3ccccc3)c2c1 is > 100 µM

Input CC(C)=CCc1c(O)c(CC=C(C)C)c2oc(-c3ccc(O)cc3O)c(CC=C(C)C)c(=O)c2c1O . Output TGI: 23.4 µM

Entry CCC(C)CN1C(=O)NC(Cc2ccccc2)C1=O (stereo unspecified) ; TGI = > 100 µM

Looking up CCOC(=O)Nn1c(C)nnc1CC#N , I see its TGI listed as > 100 µM

The compound [N-]=[N+]=Nc1ccccc1Oc1ccccc1 showed TGI equal to > 100 µM

Value of measured TGI for the entry CCN(CC)CCOc1ccc(N2C(=O)c3cccc4cc([N+](=O)[O-])cc(c34)C2=O)cc1 : 15.4 µM

---

Tested on: PC-3 prostate
assay-name: NCI tumour cell line growth inhibition, 48 h
measurement-type: TGI

# annotated cases, reported TGI shown
# compound, TGI
records = [
    ("c1ccc2c(c1)nc1n2sc2nc3ccccc3n21", "> 100 µM"),
    ("C[C@@H]1C[N+]2([O-])[C@H]3C4=CCC[C@@H]4CC[C@H]3[C@@]3(C)OC(=O)CC[C@]34CC[C@H]1[C@@H]42 (stereo partly drawn)", "> 60 µM"),
    ("COc1ccc(C(=O)c2cc(OC)c3c(c2)OCO3)cc1O", "> 100 µM"),
    ("CN(Cc1cnc2c(n1)C(N)=NN(N)N2)c1ccc(C(=O)NC(CCP(=O)(O)O)C(=O)O)cc1 (stereo not drawn)", "> 100 µM"),
    ("O=C1OCC=C1COC1OC(CO)C(O)C(O)C1O (stereo not drawn)", "> 100 µM"),
    ("COc1cc(C[C@@H](C)N)cc(OC)c1", "> 100 µM"),
]

I looked up Nc1nc2c(c3ncccc13)C(c1cccc(Br)c1)Cc1ncccc1-2 (stereo not drawn) and its TGI for PC-3 prostate was 18.5 µM

PC-3 prostate assay, compound N=C(N)N=Nc1ccc(NN=C(N)N)c2c1ncc1c2nc2sccn21 , recorded TGI = 99.5 µM

Kindly note: PC-3 prostate, CNC(=S)Nc1sc2c(c1C#N)CCCC2 , TGI value reported: > 75 µM

The recorded TGI with PC-3 prostate for O=C1c2ccccc2-c2nnc(-c3ccc(Br)cc3)cc21 was > 100 µM

Fill in: PC-3 prostate TGI for CC(=O)OC1CC2(C)C(OC(C)=O)CC1C2(C)C (stereo not drawn) = > 100 µM

---

System: HL-60(TB) leukemia
assay-name: NCI tumour cell line growth inhibition, 48 h
Readings of TGI for the listed compounds

# item-smiles, assayed-target, TGI
rows = [
    ("O=C(/C=C/c1ccc(Cl)cc1)/C=C/c1cc2ccccc2[nH]c1=O", "HL-60(TB) leukemia", "8.39 µM"),
]

O=c1c2ccc3cccc4c(=O)c5ccc6cccc1c6c5-c2c34 yielded TGI of > 50 µM

Value of measured TGI for the entry CC(=O)[CH-]C(C)=O.CC(=O)[CH-]C(C)=O.CC(=O)[CH-]C(C)=O.[In+3] : > 100 µM

# TGI of Nc1ccc(C(c2ccccc2)(c2ccccc2)c2ccccc2)cc1 = 91.6 µM

The measured TGI associated with O=C(Oc1ccc(S(=O)(=O)F)cc1F)c1ccccc1Cl reads > 100 µM

TGI in this record for O=C(c1cc(Cl)ccc1Cl)N1CCN(c2cccc(Cl)c2)CC1 : > 100 µM

---

System: SF-539 CNS
assay-name: NCI tumour cell line growth inhibition, 48 h
measurement-type: GI50

Some solved entries appear below for comparison.
# compound, GI50
records = [
    ("N=C(N)N=Nc1ccc(NN=C(N)N)c2c1ncc1c2nc2sccn21", "21 µM"),
    ("C(#Cc1cnccn1)/C=C\\C#Cc1cnccn1", "15.4 µM"),
    ("CCCS(=O)(=O)Nc1ccc(F)c(C(=O)c2c[nH]c3ncc(Cl)cc23)c1F", "9.1 µM"),
    ("COc1cccc2c1C(=O)c1c(O)c3c(c(O)c1C2=O)C[C@@](O)(C(C)O)C[C@@H]3OC1CC(N)C(O)C(C)O1 (some centres not stated)", "0.665 µM"),
]

The compound identified as O=C(NCc1ccc(Cl)cc1Cl)c1ccc(NC2=C(Cl)C(=O)N(Cc3ccccc3)C2=O)cc1 registered its GI50 at 21.3 µM

Please fill in: GI50 reported for CC(=O)[CH-]C(C)=O.CC(=O)[CH-]C(C)=O.CC(=O)[CH-]C(C)=O.[In+3] = > 100 µM

Recorded GI50 (compound CCOC(=O)N1C/C(=C/c2ccc(F)cc2)C(=O)/C(=C/c2ccc(F)cc2)C1 ): 1.76 µM
